assay: Colour of compounds; type: physicochemical

COMPOUND	Colour
Cc1cccc(C)c1-c1ccc2nc(Nc3ccc(N4CCNCC4)cc3)ncc2c1 [compound 17]	brown
Cl.Oc1ccc(Cl)c(-c2ccc3nc(Nc4ccc(OCCN5CCCC5)cc4)ncc3c2)c1 [compound 7]	Pale yellow
Oc1ccc(Cl)c(-c2ccc3nc(Nc4ccc(OCCN5CCCCCC5)cc4)ncc3c2)c1 [compound 16]	Pale yellow
O=C1N(CCN2CCCC2)CCN1c1ccc(Nc2ncc3cc(-c4cc(O)ccc4Cl)ccc3n2)cc1 [12 Chlorhydrate]	Pale yellow
Cc1cccc(C)c1-c1ccc2nc(Nc3ccc(OCCN4CCC[C@@H]4C(=O)O)cc3)ncc2c1 [8 Chlorhydrate]	Pale yellow
Cc1cc(-c2cc(O)ccc2Cl)cc2cnc(Nc3ccc(OCCN4CCCC4)cc3)nc12.Cl [Compound 18]	Pale yellow

* * *

Experiment: Solubility in aqueous buffer at pH 5 (HPLC/UV)
Format: physicochemical
Details: acetic acid/KOH buffer pH 5, stirred 24 h at room temperature
Procedure: Solubility of Compounds was determined in aqueous medium using the following procedure. Two mg of Compound was added to 200 μl buffer (acetic acid/KOH) solution at pH 5. Solution was then stirred for 24 h at room temperature and then centrifuged 10 min at 16,000 rpm. Corresponding supernatants were analyzed by HPLC and UV detection. […]

COMPOUND	Solubility (pH 5) in % (%)
Cc1cc(-c2cc(O)ccc2Cl)cc2cnc(Nc3ccc(OCCN4CCCC4)cc3)nc12.Cl	0.67
Cc1cccc(C)c1-c1ccc2nc(Nc3ccc(N4CCNCC4)cc3)ncc2c1	0.63
Cc1cccc(C)c1-c1ccc2nc(Nc3ccc(N4CCN(CCN5CCCC5)C4=O)cc3)ncc2c1 [9 Chlorhydrate]	0.35
Cc1cccc(C)c1-c1ccc2nc(Nc3ccc(OCC(=O)N4CC[C@@H](N(C)C)C4)cc3)ncc2c1	0.01
Cc1cccc(C)c1-c1ccc2nc(Nc3ccc(OCCN4CCCC4)cc3)ncc2c1 [6 Chlorhydrate]	0.09
Cl.Oc1ccc(Cl)c(-c2ccc3nc(Nc4ccc(OCCN5CCCC5)cc4)ncc3c2)c1	0.19
Cc1cccc(C)c1-c1ccc2nc(Nc3ccc(OCCN4CCC[C@@H]4C(=O)O)cc3)ncc2c1 [8 Chlorhydrate]	1
CN(C)[C@@H]1CCN(C(=O)COc2ccc(Nc3ncc4cc(-c5cc(O)ccc5Cl)ccc4n3)cc2)C1 [13 base form]	0.03
Oc1ccc(Cl)c(-c2ccc3nc(Nc4ccc(OCCN5CCCCCC5)cc4)ncc3c2)c1	0.05
Oc1ccc(Cl)c(-c2ccc3nc(Nc4ccc(OCCN5CCCC5)cc4)ncc3c2)c1 [7 base form]	0.03
O=C1N(CCN2CCCC2)CCN1c1ccc(Nc2ncc3cc(-c4cc(O)ccc4Cl)ccc3n2)cc1 [12 Chlorhydrate]	0.45

* * *

assay: Colour of compounds; type: physicochemical

COMPOUND	Colour
Cc1cccc(C)c1-c1ccc2nc(Nc3ccc(OCCN4CCCC4)cc3)ncc2c1 [6 Chlorhydrate]	Pale yellow
Cc1cccc(C)c1-c1ccc2nc(Nc3ccc(OCC(=O)N4CC[C@@H](N(C)C)C4)cc3)ncc2c1	Pale yellow
Cc1cccc(C)c1-c1ccc2nc(Nc3ccc(N4CCN(CCN5CCCC5)C4=O)cc3)ncc2c1 [9 Chlorhydrate]	Pale yellow

Provenance of the data: patent US8389530B2
